Reported pIC50 values follow for various compounds
biological target: MCH receptor (Homo sapiens); assay: High throughput functional screening FLIPR/FDSS6000 (intracellular Ca2+ evoked by MCH); type: cell-based; settings: FLIPR/FDSS, antagonist activity vs 50 nM MCH; class by percent of control at 10^−7 M or IC50; table after the classification; read-out: class
pIC50: −log10 of the molar value. Structures can show the parent of a compound that is named as a salt.

Prompt line: Value lookup for pIC50; key = O=C(N[C@H]1CC[C@@H](Nc2ccc3ccccc3n2)CC1)c1cccc(Cl)c1 [Example 3035, hydrochloride]
Response line: > 7.30

Prompt line: For the compound O=C(N[C@H]1CC[C@@H](Nc2ncccn2)CC1)c1ccc(F)c(F)c1 [Example 3144, hydrochloride] , what pIC50 is on record?
Response line: < 6.70

Prompt line: Which measured pIC50 value corresponds to Cc1cc(N[C@H]2CC[C@@H](NC(=O)c3cc(F)cc(F)c3)CC2)nc2ccccc12 [Example 3166, hydrochloride] ?
Response line: > 7.30

Prompt line: Requested read-out: pIC50. Entry: Cc1cc(N[C@H]2CC[C@@H](NC(=O)c3cc(F)ccc3F)CC2)nc2ccccc12 [Example 3164, hydrochloride]
Response line: 6.70 to 7.30

----------
target: MCH receptor (Homo sapiens, UniProt Q99705); assay: High throughput functional screening FLIPR/FDSS6000 (intracellular Ca2+ evoked by MCH); format: cell-based; details: FLIPR/FDSS, antagonist activity vs 50 nM MCH; class by percent of control at 10^−7 M or IC50; table after the classification; read-out: class
Structures can show the parent of a compound that is named as a salt.
# IC50 per entry

// worked examples, IC50 included
* Cc1cc(N[C@H]2CC[C@@H](NC(=O)c3ccc(-n4ccnc4)nc3)CC2)nc2ccccc12 [Example 3187, dihydrochloride] | > 0.2 µM
* Cc1cc(N(C)C)nc(N[C@H]2CC[C@@H](NC(=O)c3cccc(Cl)c3)CC2)n1 [Example 3128, hydrochloride] | < 0.05 µM
* CN(C)c1nc(N[C@H]2CC[C@@H](NC(=O)c3ccc(F)c(Cl)c3)CC2)nc2c1CCCC2 [Example 3108, hydrochloride] | < 0.05 µM
* CN(C)c1nc(N[C@H]2CC[C@@H](NC(=O)c3ccc(F)c(F)c3)CC2)ncc1-c1ccccc1 [Example 3138, hydrochloride] | 0.05 to 0.2 µM
* COc1ccnc(N[C@H]2CC[C@@H](NC(=O)c3ccc(F)c(F)c3)CC2)n1 [Example 3131, hydrochloride] | > 0.2 µM

Prompt line: # lookup: IC50 of Cc1cc(N[C@H]2CC[C@@H](NC(=O)COc3ccc(F)c(Cl)c3)CC2)nc2ccccc12 [Example 3100, hydrochloride]
Response line: < 0.05 µM

Prompt line: Any idea what IC50 was measured for Cc1cc(N[C@H]2CC[C@@H](NC(=O)C(c3ccccc3)c3ccccc3)CC2)nc2ccccc12 [Example 3089, hydrochloride] ?
Response line: < 0.05 µM

----------
Target: MCH receptor (Homo sapiens)
Experiment: High throughput functional screening FLIPR/FDSS6000 (intracellular Ca2+ evoked by MCH)
Type: cell-based
Settings: FLIPR/FDSS, antagonist activity vs 50 nM MCH; class by percent of control at 10^−7 M or IC50; table after the classification; read-out: class
From the text: High Throughput Functional Screening: FLIPR™ This assay utilized a non-endogenous, constitutively active version of the MCH receptor. […] Fluorometric Imaging Plate Reader system was used to allow for rapid, kinetic measurements of intracellular fluorescence in 96 well microplates (or 384 well microplates). Simultaneous measurements of fluorescence in all wells can be made by FLIPR or FDSS6000™ every second with high sensitivity and precision. […]
pIC50: −log10 of the molar value. Where a name gives a salt, the structure may show the parent alone.
Property name: pIC50

Worked set:
- CNc1nc(N[C@H]2CC[C@@H](NCCc3ccc(Br)cc3OC(F)(F)F)CC2)nc2c1CCCC2 [Example 10, dihydrochloride]: 6.70 to 7.30
- Cc1cc(N[C@H]2CC[C@@H](CNC(=O)Nc3cccc(Cl)c3Cl)CC2)nc2ccccc12 [Example 3106, hydrochloride]: > 7.30
- Cc1cc(N[C@H]2CC[C@@H](NC(=O)c3cc(F)cc(Cl)c3)CC2)nc2ccccc12 [Example 3179, hydrochloride]: > 7.30

Continue with the next compound.
Prompt line: Look at this compound and give its reported pIC50. Cc1cc(N[C@H]2CC[C@@H](NC(=O)c3cccc(O)c3)CC2)nc2ccccc12 [Example 3160, hydrochloride]
Response line: > 7.30
